- EXPERIMENT NOTES: Cytotoxicity against human MT2 cells by MTT assay
- Assay type: cell-based
- CONDITION DESCRIPTION: MT2 cells
ENDPOINT NAME: CC50

State the recorded CC50 for this entry: `Cc1ccnc2c1NC(=O)c1cccnc1N2C1CC1`
> 100 µM

---

Field: CC50. Provide a value for each of the molecules that follow.
- Test system: MT2
- EXPERIMENT NOTES: Cytotoxicity against human MT2 cells by MTT assay
- Type: cell-based
- CONDITION DESCRIPTION: mt2
A number alone suffices; assume µM.

State the recorded CC50 for this entry: `COCCOCCOCCOc1nc(Nc2ccc(C#N)c(OCC=C(C)C)c2)nc(OC)n1`
4.2

State the recorded CC50 for this entry: `CCc1nc(Nc2ccc(C#N)c(OCC=C(C)C)c2)nc(OCCOC)n1`
2.1

State the recorded CC50 for this entry: COc1nc(Nc2ccc(C#N)c(OCC=C(C)C)c2)nc(OCCC2CCCCO2)n1 (racemic)
4.2

State the recorded CC50 for this entry: `COCCOCCOc1nc(Nc2ccc(C#N)c(OCC=C(C)C)c2)nc(OC)n1`
13

State the recorded CC50 for this entry: `COc1nc(NCCNc2nc(Nc3ccc(C#N)c(OCC=C(C)C)c3)nc(OC)n2)nc(Nc2ccc(C#N)c(OCC=C(C)C)c2)n1`
6

State the recorded CC50 for this entry: `COc1nc(Nc2ccc(C#N)c(OCC=C(C)C)c2)nc(OCCN2CCN(C)CC2)n1`
7

State the recorded CC50 for this entry: `COc1nc(NCCCNc2nc(Nc3ccc(C#N)c(OCC=C(C)C)c3)nc(OC)n2)nc(Nc2ccc(C#N)c(OCC=C(C)C)c2)n1`
50

State the recorded CC50 for this entry: `COc1nc(Nc2ccc(C#N)c(OCC=C(C)C)c2)nc(OCCCOc2nc(Nc3ccc(C#N)c(OCC=C(C)C)c3)nc(OC)n2)n1`
21

State the recorded CC50 for this entry: `COCCOc1nc(Nc2ccc(C#N)c(OCC=C(C)C)c2)nc(OC)n1`
8.6

State the recorded CC50 for this entry: `COc1nc(Nc2ccc(C#N)c(OCC=C(C)C)c2)nc(OCCOc2nc(Nc3ccc(C#N)c(OCC=C(C)C)c3)nc(OC)n2)n1`
42

State the recorded CC50 for this entry: `CCc1nc(Nc2ccc(C#N)c(OCC=C(C)C)c2)nc(OCCOCCOC)n1`
9.8

---

- System: Human immunodeficiency virus 1
- EXPERIMENT NOTES: Antiviral activity against HIV1 3B infected in human MT2 cells assessed as inhibition of virus-induced cytopathic effect by MTT assay
- Format: functional, organism-based
- CONDITION DESCRIPTION: Human immunodeficiency virus 1, 3B, MT2; read-out: EC50
ENDPOINT NAME: pEC50
Worth noting: pEC50 values are minus log10 of concentrations stated in mol/L.

State the recorded pEC50 for this entry: `COCCOc1nc(Nc2ccc(C#N)c(OCC=C(C)C)c2)nc(OC)n1`
7.01

State the recorded pEC50 for this entry: `CCc1nc(Nc2ccc(C#N)c(OCC=C(C)C)c2)nc(OCCOCCOC)n1`
6.27

State the recorded pEC50 for this entry: `COc1nc(Nc2ccc(C#N)c(OCC=C(C)C)c2)nc(OCCN2CCN(C)CC2)n1`
6.49

State the recorded pEC50 for this entry: `COCCOCCOc1nc(Nc2ccc(C#N)c(OCC=C(C)C)c2)nc(OC)n1`
6.82

State the recorded pEC50 for this entry: COc1nc(Nc2ccc(C#N)c(OCC=C(C)C)c2)nc(OCCC2CCCCO2)n1 (racemic)
5.92
